system_tested: T1, BIN1-SH3 domain (UniProt O00499 520-593)
T1 construct: SH3 domain of BIN1 (Amphiphysin 2); residue 559 lies in it (isoform 1 numbering); 15N-labelled for NMR; also called 15N-BIN1 SH3
T1 sequence (looked up): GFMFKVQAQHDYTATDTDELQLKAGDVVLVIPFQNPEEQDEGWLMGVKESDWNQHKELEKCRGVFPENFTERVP
procedure_text: NMR titration; 100 µM 15N-labeled BIN1-SH3 domain titrated with aliquots of 4 mM unlabeled peptide; 1H-15N HSQC chemical shift changes fitted to the saturation equation; 20 °C, 50 mM sodium phosphate pH 7.3, 30 mM NaCl, 3 mM DTT, 10% D2O
condition_info: both partners purified
Square brackets hold non-standard residues; d marks the D form. Ends that are not written are not given here. pT = C[C@@H](OP(=O)(O)O)[C@H](N)C(=O)O
quantity_kind: Kd
Hi, when you answer, please include the unit after the number. Thanks!

Looking for the measured Kd of QLRKGPPVPPPPKH[pT]PSKEVKQ (residues 334-355 of the CLAP domain of BIN1 isoform 1 (neuronal isoform), phosphorylated on T348; unlabeled peptide, 4 mM stock solution; also called phospho-CLAP (334-355)) [phospho-T348 CLAP (334-355) peptide] , can you help?
736 µM

# iterate: QLRKGPPVPPPPKHTPSKEVKQ (residues 334-355 of the CLAP domain of BIN1 isoform 1 (neuronal isoform); unlabeled peptide, 4 mM stock solution) [CLAP (334-355) peptide]
71 µM
